Assignment: determine reported IC50 for the given sequences.
Target: HLA-A*02:03
Assay: IEDB peptide-MHC binding, cellular MHC/competitive/fluorescence; bounds were set here for any values at or beyond the usual limits of such assays
Details: source organism: Vaccinia virus WR
One number for each entry, in µM.

// known answers, use as guide
>>> measured("KISVEKIKQT")
8.96
>>> measured("LAEYIRHRNT")
14
>>> measured("IVQLPKRGV")
8.75

For each entry beneath this line, provide reported IC50.
1. IVPDIKLDA
2. ETKRNIARHL
3. IASILSLET
4. PLHIVCSKTV
5. YTEAAAATCA
6. VATFRDMLL

1. 15.7
2. 12.4
3. 7.48
4. 5.27
5. 16.1
6. 9.94

For each entry beneath this line, provide reported IC50.
1. KTEHCDDFMT
2. DTSPTKRCRL
3. SICLDYIIV
4. RISSSLDQT
5. SIENKHQRRL
6. NIREGTHVLL
7. FTELENKKV

1: 37.7; 2: 37.1; 3: 8.65; 4: 12.8; 5: 21.1; 6: 5.51; 7: 8.08

For each entry beneath this line, provide reported IC50.
1. IASGQRCHFI
2. PTNDIPSLFI

8.32
61.8

For each entry beneath this line, provide reported IC50.
1. PTDMLKLFT
2. AARLKRSAT
3. ETVKMGAFM
4. DVIKSISSI
5. TQFNFNGHT
6. EMQLKIDKLT

47
10.5
7.43
7.52
14.4
6.82
